// data source = ChEMBL document CHEMBL3400056

Each entry below carries its reported UI.
Tested on: Mus musculus
Assay: Gastrointestinal toxicity in Swiss albino mouse assessed as ulcer index at 100 mg/kg, po measured after 2 hrs
Type: organism-based
Set-up: dose 100 mg/kg, route oral
Conditions: in vivo

{"COMPOUND": "COc1ccc2cc(C(C)c3nc4s/c(=C\\c5ccc(Br)s5)c(=O)n4n3)ccc2c1 (stereo not drawn)", "UI": 2.6}
{"COMPOUND": "COc1ccc2cc(C(C)c3nc4s/c(=C\\c5ccc6ccccc6c5)c(=O)n4n3)ccc2c1 (stereo not drawn)", "UI": 3.4}
{"COMPOUND": "COc1ccc2cc(C(C)c3nc4s/c(=C\\c5cccc(OC(C)=O)c5)c(=O)n4n3)ccc2c1 (stereo not drawn)", "UI": 2.4}
{"COMPOUND": "COc1ccc2cc(C(C)c3nc4s/c(=C\\c5ccc(OCc6ccccc6)cc5)c(=O)n4n3)ccc2c1 (stereo not drawn)", "UI": 2.7}
{"COMPOUND": "COc1ccc2cc(C(C)c3nc4s/c(=C\\c5cn(C(C)=O)c6ccccc56)c(=O)n4n3)ccc2c1 (stereo not drawn)", "UI": 2.4}
{"COMPOUND": "COc1ccc2c3c1O[C@H]1C(=O)CC[C@@]4(O)[C@@H](C2)N(C)CC[C@]314 [OXYCODONE]", "UI": 1.5}
{"COMPOUND": "COc1ccc2cc(C(C)c3nc4s/c(=C\\c5ccccc5OC(C)=O)c(=O)n4n3)ccc2c1 (stereo not drawn)", "UI": 3}
{"COMPOUND": "COc1ccc2cc(C(C)c3nc4s/c(=C\\c5ccc(-c6ccccc6)cc5)c(=O)n4n3)ccc2c1 (stereo not drawn)", "UI": 2.6}

* * *

# UI per entry
Tested on: Mus musculus
Assay: Gastrointestinal toxicity in Swiss albino mouse assessed as ulcer index at 50 mg/kg, po measured after 2 hrs
Format: organism-based
Parameters: dose 50 mg/kg, route oral
Conditions: in vivo

{"COMPOUND": "COc1ccc2cc(C(C)c3nc4s/c(=C\\c5ccc(C)o5)c(=O)n4n3)ccc2c1 (stereo not given)", "UI": 1.3}
{"COMPOUND": "COc1ccc2cc(C(C)c3nc4s/c(=C\\c5sccc5C)c(=O)n4n3)ccc2c1 (stereo not given)", "UI": 2.6}
{"COMPOUND": "COc1ccc2cc(C(C)c3nc4s/c(=C\\c5cc(Br)cs5)c(=O)n4n3)ccc2c1 (stereo not given)", "UI": 2.9}
{"COMPOUND": "COc1ccc2cc(C(C)c3nc4s/c(=C\\c5ccc6ccccc6c5)c(=O)n4n3)ccc2c1 (stereo not given)", "UI": 2}
{"COMPOUND": "COc1ccc2cc(C(C)c3nc4s/c(=C\\c5ccco5)c(=O)n4n3)ccc2c1 (stereo not given)", "UI": 2.6}

* * *

Test system: Mus musculus
Assay: Acute toxicity in Swiss albino mouse assessed as behavioral changes at 50 to 100 mg/kg, po measured up to 14 days
Type: organism-based
Set-up: dose 50-100 mg/kg, route oral
Conditions: in vivo, 336 h

{"COMPOUND": "COc1ccc2cc(C(C)c3nc4s/c(=C\\c5cccs5)c(=O)n4n3)ccc2c1 (configuration not stated)", "Activity": "Non-toxic"}
{"COMPOUND": "COc1ccc2cc(C(C)c3nc4s/c(=C\\c5ccc(C(C)C)cc5)c(=O)n4n3)ccc2c1 (configuration not stated)", "Activity": "Non-toxic"}
{"COMPOUND": "COc1ccc2cc(C(C)c3nc4s/c(=C\\c5ccccc5OCc5ccccc5)c(=O)n4n3)ccc2c1 (configuration not stated)", "Activity": "Non-toxic"}
{"COMPOUND": "COc1ccc2cc(C(C)c3nc4s/c(=C\\c5sccc5C)c(=O)n4n3)ccc2c1 (configuration not stated)", "Activity": "Non-toxic"}
{"COMPOUND": "COc1ccc2cc(C(C)c3nc4s/c(=C\\c5ccc(C)s5)c(=O)n4n3)ccc2c1 (configuration not stated)", "Activity": "Non-toxic"}
{"COMPOUND": "COc1ccc2cc(C(C)c3nc4s/c(=C\\c5ccc(Br)s5)c(=O)n4n3)ccc2c1 (configuration not stated)", "Activity": "Non-toxic"}
{"COMPOUND": "COc1ccc2cc(C(C)c3nc4s/c(=C\\c5ccc(-c6ccccc6)cc5)c(=O)n4n3)ccc2c1 (configuration not stated)", "Activity": "Non-toxic"}
{"COMPOUND": "COc1ccc2cc(C(C)c3n[nH]c(=S)[nH]3)ccc2c1 (configuration not stated)", "Activity": "Non-toxic"}
{"COMPOUND": "COc1ccc2cc(C(C)c3nc4s/c(=C\\c5cn(C(C)=O)c6ccccc56)c(=O)n4n3)ccc2c1 (configuration not stated)", "Activity": "Non-toxic"}
{"COMPOUND": "COc1ccc2cc(C(C)c3nc4s/c(=C\\c5ccc(C)o5)c(=O)n4n3)ccc2c1 (configuration not stated)", "Activity": "Non-toxic"}
{"COMPOUND": "COc1ccc2cc(C(C)c3nc4s/c(=C\\c5ccccc5OC(C)=O)c(=O)n4n3)ccc2c1 (configuration not stated)", "Activity": "Non-toxic"}
{"COMPOUND": "COc1ccc2cc(C(C)c3nc4s/c(=C\\c5cccc(OC(C)=O)c5)c(=O)n4n3)ccc2c1 (configuration not stated)", "Activity": "Non-toxic"}
